System: CCRF-CEM leukemia
Test: NCI tumour cell line growth inhibition, 48 h; in the data active = GI50 below about 0.43 µM; inactive = the rest
Outcomes: active, inactive

[[record]]
compound = "N#CC1c2ccccc2-c2ccccc2N1C(=O)c1ccccc1 (stereo not drawn)"
label_class = "inactive"

[[record]]
compound = "CC(C)(C)n1cc(-c2ccnc(NCCNS(=O)(=O)c3ccc(Br)cc3)c2)c(-c2cccc(O)c2)n1"
label_class = "inactive"

[[record]]
compound = "CC(C)OP(=O)(CP(=O)(OC(C)C)OC(C)C)OC(C)C.[CH3][Sn]([Br])([Br])[Br]"
label_class = "inactive"

[[record]]
compound = "COc1ccccc1C1C(C#N)=C(N)OC2=C1C(=O)CCC2 (stereo not drawn)"
label_class = "inactive"

[[record]]
compound = "CCN(CC)CCC(=O)Nc1ccc(Cn2nnc3c2C(=O)c2nnn(Cc4ccc(NC(=O)CCN(CC)CC)cc4)c2C3=O)cc1"
label_class = "active"

[[record]]
compound = "O=C(N[C@@H]1CCCc2ccccc21)[C@H](CCC(=O)N1CCN(C2CCCCC2)CC1)N1C(=O)[C@@H](N2C(=O)OC[C@@H]2c2ccccc2)[C@H]1/C=C/c1ccccc1"
label_class = "inactive"

[[record]]
compound = "COc1ccccc1C(=O)c1cnc(NC2CCN(S(C)(=O)=O)CC2)nc1N"
label_class = "inactive"

[[record]]
compound = "c1ccc2c(c1)nc(NCCN1CCNCC1)c1c3ccccc3[nH]c21"
label_class = "active"

[[record]]
compound = "O=c1oc(-c2ccc(O)c(O)c2)cc2cc(O)cc(O)c12"
label_class = "inactive"

[[record]]
compound = "COc1cc[nH]c1/C=C1\\C(=O)Nc2ccc(F)c(C#CC3(O)CCOCC3)c21"
label_class = "inactive"

[[record]]
compound = "CC[C@]12C=CCN3CC[C@]4(C(=C(C(=O)OC)C1)Nc1cc(O)ccc14)[C@@H]32"
label_class = "inactive"

[[record]]
compound = "CCOC(=O)c1[nH]c2c(c1C)-c1[nH]c(=O)c(S(=O)(=O)c3ccccc3)cc1SC2"
label_class = "inactive"

[[record]]
compound = "CC(C)OP(=O)(OC(C)C)C(N(C)C)P(=O)(OC(C)C)OC(C)C.[Cl][Sn]([Cl])([Cl])[c]1ccccc1"
label_class = "inactive"

